targetEntity: PD-L1 His protein / PD-1 Fc protein (Homo sapiens, UniProt Q9NZQ7)
Sequence (Q9NZQ7 19-238 limits assumed): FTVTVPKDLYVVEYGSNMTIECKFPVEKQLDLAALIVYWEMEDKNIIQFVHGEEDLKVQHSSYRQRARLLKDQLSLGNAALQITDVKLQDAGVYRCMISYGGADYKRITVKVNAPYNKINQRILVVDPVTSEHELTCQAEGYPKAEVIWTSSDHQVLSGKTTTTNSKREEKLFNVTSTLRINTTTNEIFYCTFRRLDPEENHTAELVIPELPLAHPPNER
assayNotes: HTRF Assay (PD-1/PD-L1 interaction)
conditionSummary: PD-L1 His 6 nM, PD-1 Fc 6 nM
measuredAttribute: log10 IC50 (log10 of the value in nM)

INSERT INTO assay_data (compound, endpointresult) VALUES
  ('COc1nc(-c2cccc(-c3cccc(-c4ccn5c(=O)c(CNCC6CC(F)(F)C(=O)N6)cnc5c4)c3Cl)c2Cl)ccc1CNC[C@@H]1CCC(=O)N1 (mixture of isomers)', 0.76),
  ('COc1nc(-c2cccc(-c3cccc(-c4ccn5c(=O)c(CNC[C@@H]6CCC(=O)N6)cnc5c4)c3Cl)c2Cl)ccc1CNCC(=O)O', -0.15),
  ('COc1nc(-c2cccc(-c3cccc(-c4ccn5c(=O)c(CNCC6CCCC(=O)N6)cnc5c4)c3Cl)c2Cl)ccc1CNC[C@@H]1CCC(=O)N1 (mixture of isomers)', 1.15),
  ('COc1nc(-c2cccc(-c3cccc(-c4cc5c(=O)n(C)c(CN[C@H]6C[C@](C)(O)C6)nn5c4)c3Cl)c2Cl)ccc1CNC[C@@H]1CCC(=O)N1', 2.70),
  ('COc1nc(-c2cccc(-c3cccc(-c4ccn5c(=O)c(CNCCN6CCCC6=O)cnc5c4)c3Cl)c2Cl)ccc1CNC[C@@H]1CCC(=O)N1', -0.15),
  ('COc1nc(-c2cccc(-c3cccc(-c4cnc5c(CNC[C@@H]6CCC(=O)N6)cnn5c4)c3Cl)c2Cl)ccc1CNC[C@@H]1CCC(=O)N1', -0.70),
  ('COc1nc(-c2cccc(-c3cccc(-c4cc5c(=O)n(C)c(CNC6CC7(CCC(=O)N7)C6)nn5c4)c3Cl)c2Cl)ccc1CNC[C@@H]1CCC(=O)N1 (some centres unmarked)', 2.65),
  ('CNC(=O)C1(NCc2cc(=O)n3ccc(-c4cccc(-c5cccc(-c6ccc(CNC[C@@H]7CCC(=O)N7)c(OC)n6)c5Cl)c4Cl)cc3n2)CC1', -0.70),
  ('COc1nc(-c2cccc(-c3cccc(-c4ccc(CN(C=O)C[C@@H]5CCC(=O)N5)c(OC)n4)c3Cl)c2Cl)ccc1CNC[C@@H]1CCC(=O)N1', -0.10),
  ('COc1nc(-c2cccc(-c3cccc(-c4ccn5c(=O)c(CNC[C@H](C)OC)cnc5c4)c3Cl)c2Cl)ccc1CNC[C@@H]1CCC(=O)N1', 1.54),
  ('COc1nc(-c2cccc(-c3cccc(-c4ccn5ncc(CNC[C@@H]6CCC(=O)N6)c5n4)c3Cl)c2Cl)ccc1CNC[C@@H]1CCC(=O)N1', 0.94);

----------
targetEntity: PD-L1 His protein / PD-1 Fc protein (Homo sapiens)
assayNotes: HTRF Assay (PD-1/PD-L1 interaction)
conditionSummary: PD-L1 His 6 nM, PD-1 Fc 6 nM
measuredAttribute: IC50 (nM)

INSERT INTO results (compound, measuredattribute, endpointresult) VALUES
  ('COC(=O)C1CN=C(c2cnc3cc(-c4cccc(-c5cccc(-c6ccc(CNC[C@@H]7CCC(=O)N7)c(OC)n6)c5Cl)c4Cl)ccn3c2=O)N1 (stereo partly drawn)', 'IC50', 0.2),
  ('COc1nc(-c2cccc(-c3cccc(-c4ccn5c(=O)c(CNC[C@H](C)O)cnc5c4)c3Cl)c2Cl)ccc1CNC[C@@H]1CCC(=O)N1', 'IC50', 1.7),
  ('COc1nc(-c2cccc(-c3cccc(-c4ccn5c(=O)c(CNC[C@H]6C[C@H]6CO)cnc5c4)c3Cl)c2Cl)ccc1CNC[C@@H]1CCC(=O)N1 [Example 408]', 'IC50', 1.1),
  ('COC(=O)CNCc1c(C)nc2cc(-c3cccc(-c4cccc(-c5ccc(CNC[C@@H]6CCC(=O)N6)c(OC)n5)c4Cl)c3Cl)ccn2c1=O', 'IC50', 1),
  ('Cc1c(COc2cc(OCc3cncc(C#N)c3)c(CNCCO)cc2Cl)cccc1-c1cccc(-c2ccc3c(c2)C(=O)N(C)CC(=O)N3CCNCCO)c1C', 'IC50', 0.8),
  ('Cc1c(COc2cc(OCc3cncc(C#N)c3)c(CNCCO)cc2Cl)cccc1-c1cccc(-c2ccn3c(=O)c(CNCCO)cnc3c2)c1C#N', 'IC50', 0.3),
  ('COc1nc(-c2cccc(-c3cccc(-c4ccn5c(=O)c(CNC[C@@H]6CCC(=O)N6)ccc5c4)c3Cl)c2Cl)cnc1CNC[C@@H]1CCC(=O)N1', 'IC50', 0.4),
  ('COc1nc(-c2cccc(-c3cccc(-c4cc5ncc(CNC[C@@H]6CCC(=O)N6)cc5cn4)c3Cl)c2Cl)ccc1CNC[C@@H]1CCC(=O)N1', 'IC50', 0.1),
  ('COc1nc(-c2cccc(-c3cccc(-c4ccn5c(=O)c(CN6C[C@H](O)C[C@H]6C(=O)O)cnc5c4)c3Cl)c2Cl)ccc1CNC[C@@H]1CCC(=O)N1', 'IC50', 0.1),
  ('COc1nc(-c2cccc(-c3cccc(-c4ccn5c(=O)c(CNC[C@@H](C)O)cnc5c4)c3Cl)c2Cl)ccc1CNC[C@H](C)O', 'IC50', 2.5),
  ('COc1nc(-c2cccc(-c3cccc(-c4ccn5c(=O)c(CNC[C@@H](O)CC(=O)O)cnc5c4)c3Cl)c2Cl)cc(F)c1CNC[C@@H]1CCC(=O)N1', 'IC50', 0.1),
  ('COc1nc(-c2cccc(-c3cccc(-c4cc5c(cn4)C(=O)N(CCNC[C@@H]4CCC(=O)N4)C5)c3Cl)c2Cl)ccc1CNC[C@@H]1CCC(=O)N1', 'IC50', 0.1);
